log10 TGI reference
# Test system: RXF 393 renal
# assay-procedure: NCI tumour cell line growth inhibition, 48 h
Heads up, the numbers here are log10 of TGI in µM units.

Incoming: Look up log10 TGI for this molecule: `O=C([CH-]C(=O)c1ccccc1)c1ccccc1.O=C([CH-]C(=O)c1ccccc1)c1ccccc1.O=C([CH-]C(=O)c1ccccc1)c1ccccc1.[Cl-].[Zr+4]`
Outgoing: 1.86

Incoming: What about this molecule? `Cn1cncc1-c1c(F)cncc1NC(=O)c1c(N)nn2cc(F)cnc12`
Outgoing: 1.23

Incoming: What about this molecule? `CCN(CC)c1ccc(N=Nc2ccc(-c3nc4cccn(C)c-4n3)cc2)cc1`
Outgoing: 1.07

Incoming: What about this molecule? `COc1ccc2c(c1)CCc1c(CO)c(COC(=O)NC(C)C)n(C)c1-2`
Outgoing: 1.59

Incoming: What about this molecule? COc1cc(CN(c2ccc(C)cc2)C2OC(=O)c3ccccc32)cc(OC)c1OC (configuration not stated)
Outgoing: -0.28

Incoming: What about this molecule? `O=C1C(Cl)=C(NCCF)C(=O)c2ncccc21`
Outgoing: 0.51

Incoming: What about this molecule? `CC(=O)O[C@H]1C(=O)[C@@]2(C)[C@H]([C@H](OC(=O)c3ccccc3)[C@]3(O)C[C@H](OC(=O)[C@H](O)[C@@H](NC(=O)c4ccc(N(C)C)cc4)c4ccccc4)C(C)=C1C3(C)C)[C@]1(OC(C)=O)CO[C@@H]1C[C@@H]2O`
Outgoing: -0.65

Incoming: What about this molecule? `O=C1NC(=Nc2ccccc2)C(=Nc2ccccc2)N1c1ccccc1`
Outgoing: 1.47

Incoming: What about this molecule? CC(CC[C@@]1(O)OC2C[C@H]3[C@@H]4CC[C@H]5CC(OC6OC(CO)C(OC7OC(CO)C(O)C(OC8OCC(O)C(O)C8O)C7OC7OC(CO)C(O)C(O)C7O)C(O)C6O)[C@H](O)CC5(C)[C@H]4CCC3(C)C2[C@@H]1C)COC1OC(CO)C(O)C(O)C1O (some centres not stated)
Outgoing: 1.24
